Target: DPP-IV (Homo sapiens, UniProt P27487)
Sequence (P27487 39-766 limits assumed): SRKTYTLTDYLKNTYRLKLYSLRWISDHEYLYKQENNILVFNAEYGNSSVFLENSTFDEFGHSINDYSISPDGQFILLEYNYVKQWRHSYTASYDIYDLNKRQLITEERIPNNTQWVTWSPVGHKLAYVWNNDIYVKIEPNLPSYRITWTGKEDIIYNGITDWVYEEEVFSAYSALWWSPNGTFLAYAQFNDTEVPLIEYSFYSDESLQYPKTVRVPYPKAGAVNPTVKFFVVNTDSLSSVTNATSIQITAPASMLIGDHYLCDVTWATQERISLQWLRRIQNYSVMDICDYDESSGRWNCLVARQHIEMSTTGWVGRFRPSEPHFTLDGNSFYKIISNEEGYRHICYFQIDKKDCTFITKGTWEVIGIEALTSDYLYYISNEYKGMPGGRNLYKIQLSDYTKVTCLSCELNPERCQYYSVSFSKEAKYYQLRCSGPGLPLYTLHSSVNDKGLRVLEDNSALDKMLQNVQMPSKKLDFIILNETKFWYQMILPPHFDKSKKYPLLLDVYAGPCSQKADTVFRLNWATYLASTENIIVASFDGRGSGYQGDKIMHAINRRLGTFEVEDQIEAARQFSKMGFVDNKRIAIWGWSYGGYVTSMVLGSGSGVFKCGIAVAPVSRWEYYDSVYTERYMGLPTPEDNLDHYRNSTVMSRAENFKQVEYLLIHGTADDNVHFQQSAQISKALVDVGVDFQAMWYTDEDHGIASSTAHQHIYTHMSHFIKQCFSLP
Assay: DPP-IV inhibition, Gly-Pro-MCA substrate, human plasma as enzyme source (Pharmacological Test Example 1)
Details: 30 minutes at room temperature
recorded_metric: IC50 (nM)

compound_structure | IC50 / nM
CC(C)(CNC(=O)c1ccc2c(ccn2CO)c1)NCC(=O)N1CCC[C@H]1C#N | 17
COc1c(C(=O)NCC(C)(C)NCC(=O)N2CCC[C@H]2C#N)c(C)nc2cc(C)nn12 | 87
CC(C)(CNC(=O)c1ccc2c(ccn2C(=O)C(C)(C)C)c1)NCC(=O)N1CCC[C@H]1C#N | 20
Cn1cc(C(=O)NCC(C)(C)NCC(=O)N2CCC[C@H]2C#N)c2ccccc21 | 36
Cc1cc(O)c2c(c1)CN(C(=O)CC(C)(C)NCC(=O)N1CCC[C@H]1C#N)C2 | 14

(a) Cn1ccc2ccc(C(=O)NCC(C)(C)NCC(=O)N3CCC[C@H]3C#N)cc21
(b) CC(C)(CCC(=O)N1Cc2ccccc2C1)NCC(=O)N1CCC[C@H]1C#N
Lower value of IC50 belongs to which: a or b ? Respond with the label that goes with your answer.
b

====

Target: DPP-IV (Homo sapiens, UniProt P27487)
Experiment: DPP-IV inhibition, Gly-Pro-MCA substrate, human plasma as enzyme source (Pharmacological Test Example 1)
Details: 30 minutes at room temperature
recorded_metric: IC50 (nM)

Some solved cases for reference:
molecule | unit_annotation | IC50
CC(=O)n1ccc2cc(C(=O)NCC(C)(C)NCC(=O)N3CCC[C@H]3C#N)ccc21 [Example 47] | nM | 24
CC(C)(CNC(=O)c1ccc2c(ccn2C(=O)c2ccccc2)c1)NCC(=O)N1CCC[C@H]1C#N [Example 48] | nM | 31
COc1cc(C(=O)NCC(C)(C)NCC(=O)N2CCC[C@H]2C#N)cc2sc(C(F)(F)F)nc12 [Example 53] | nM | 48
CC(C)(C)Cn1ccc2cc(C(=O)NCC(C)(C)NCC(=O)N3CCC[C@H]3C#N)ccc21 [Example 31] | nM | 49
COc1c(C(=O)NCC(C)(C)NCC(=O)N2CCC[C@H]2C#N)c(C)nc2cc(-c3ccccc3)nn12 [Example 10] | nM | 85

(I) Cn1ccc2cc(C(=O)NCC(C)(C)NCC(=O)N3CCC[C@H]3C#N)ccc21 [Example 20]
(II) CC(C)(CNC(=O)c1ccc2c(ccn2CC(=O)OC(C)(C)C)c1)NCC(=O)N1CCC[C@H]1C#N [Example 43]
(III) N#C[C@@H]1CCCN1C(=O)CNCCC(=O)N1CCc2ccccc21 [Example 91]
(IV) CC(C)(CC(=O)N1Cc2ccc(Br)cc2C1)NCC(=O)N1CCC[C@H]1C#N [Example 64]
Provide the items ranked by increasing IC50. # output: labels, in the requested order
II, IV, I, III

====

Target: UniProt:P27487
Test: DPP-IV inhibition, Gly-Pro-MCA substrate, human plasma as enzyme source (Pharmacological Test Example 1)
Settings: 30 minutes at room temperature
pIC50: −log10 of the molar value.
recorded_metric: pIC50

Some solved cases for reference:
compound | measured_on | pIC50
COCn1cc(C(=O)NCC(C)(C)NCC(=O)N2CCC[C@H]2C#N)c2ccccc21 [Example 34] | UniProt:P27487 | 7.64
CC(C)(CC(=O)N1Cc2c(Cl)ccc(Cl)c2C1)NCC(=O)N1CCC[C@H]1C#N [Example 69] | UniProt:P27487 | 7.68
Cc1nc2ccc(C(=O)NCC(C)(C)NCC(=O)N3CCC[C@H]3C#N)cc2o1 [Example 57] | UniProt:P27487 | 7.46
CC(C)(CNC(=O)c1ccc2ncsc2c1)NCC(=O)N1CCC[C@H]1C#N [Example 51] | UniProt:P27487 | 7.59
Cc1nn(C)c2ncc(C(=O)NCCNCC(=O)N3CCC[C@H]3C#N)cc12 [Compound 122] | UniProt:P27487 | 7.59
Cn1ccc2c(C(=O)NCC(C)(C)NCC(=O)N3CCC[C@H]3C#N)cccc21 [Example 19] | UniProt:P27487 | 7.30

(A) CC(=O)n1cc(C(=O)NCC(C)(C)NCC(=O)N2CCC[C@H]2C#N)c2ccccc21 [Example 45]
(B) CC(C)(CC(=O)N1Cc2ccc(Cl)cc2C1)NCC(=O)N1CCC[C@H]1C#N [Example 65]
API: POST /compare with A and B ; response names the item with higher pIC50. Respond with the label that goes with your answer.
B

(a) CC(=O)OCn1cc(C(=O)NCC(C)(C)NCC(=O)N2CCC[C@H]2C#N)c2ccccc21 [Example 35]
(b) COc1cc2ncsc2cc1C(=O)NCCNCC(=O)N1CCC[C@H]1C#N [Example 102]
API: POST /compare with a and b ; response names the item with higher pIC50. Respond with the label that goes with your answer.
a

(I) CC(C)(CNC(=O)c1ccc2[nH]c(=O)sc2c1)NCC(=O)N1CCC[C@H]1C#N [Example 55]
(II) CC(C)(CC(=O)N1Cc2ccc(CO)cc2C1)NCC(=O)N1CCC[C@H]1C#N [Example 71]
(III) COc1cc(C(=O)NCC(C)(C)NCC(=O)N2CCC[C@H]2C#N)cc2ccn(C)c12 [Example 28]
Provide the items ranked by increasing pIC50. # output: labels, in the requested order
III, I, II
(III: 7.11, I: 7.62, II: 8.70)

(a) N#C[C@@H]1CCCN1C(=O)CNCCC(=O)N1Cc2ccccc2C1 [Example 89]
(b) N#C[C@@H]1CCCN1C(=O)CNCCNC(=O)c1ccc2ncsc2c1 [Example 95]
(c) Cc1nc2ccc(C(=O)NCCNCC(=O)N3CCC[C@H]3C#N)cc2s1 [Example 101]
(d) CC(C)(CC(=O)N1Cc2cccc(F)c2C1)NCC(=O)N1CCC[C@H]1C#N [Example 67]
Order field: pIC50 | Direction: descending (largest first) # output: labels, in the requested order
d, b, a, c
(d: 8.15, b: 7.89, a: 7.60, c: 7.18)

(I) CC(C)(CNC(=O)c1cnc2cc(CO)nn2c1)NCC(=O)N1CCC[C@H]1C#N [Example 13]
(II) COc1ccc2cc(C(=O)NCC(C)(C)NCC(=O)N3CCC[C@H]3C#N)n(C)c2c1 [Example 24]
(III) CC(C)Cn1cc(C(=O)NCC(C)(C)NCC(=O)N2CCC[C@H]2C#N)c2ccccc21 [Example 30]
Provide the items ranked by increasing pIC50. # output: labels, in the requested order
III, II, I

(I) COc1ccc2c(c1)c(C(=O)NCC(C)(C)NCC(=O)N1CCC[C@H]1C#N)cn2C [Example 27]
(II) COc1ccc2c(c1)c(C(=O)NCC(C)(C)NCC(=O)N1CCC[C@H]1C#N)cn2CC(C)(C)C [Example 39]
Lower value of pIC50 belongs to which: I or II ? Respond with the label that goes with your answer.
II

(A) COCn1ccc2cc(C(=O)NCC(C)(C)NCC(=O)N3CCC[C@H]3C#N)ccc21 [Example 38]
(B) Cc1cccc2c1CN(C(=O)CC(C)(C)NCC(=O)N1CCC[C@H]1C#N)C2 [Example 68]
(C) Cc1cc2nc(O)c(C(=O)NCC(C)(C)NCC(=O)N3CCC[C@H]3C#N)cn2n1 [Example 11]
Order field: pIC50 | Direction: descending (largest first) # output: labels, in the requested order
B, A, C

(A) Cn1ccc2cccc(C(=O)NCC(C)(C)NCC(=O)N3CCC[C@H]3C#N)c21 [Example 22]
(B) COc1cccc2c1CN(C(=O)CC(C)(C)NCC(=O)N1CCC[C@H]1C#N)C2 [Example 78]
(C) COc1ccc2c(c1)c(C(=O)NCC(C)(C)NCC(=O)N1CCC[C@H]1C#N)c(C)n2C [Example 26]
Provide the items ranked by increasing pIC50. # output: labels, in the requested order
A, C, B
(A: 7.14, C: 7.48, B: 7.82)

====

Molecular target: DPP-IV (Homo sapiens, UniProt P27487)
Assay: DPP-IV inhibition, Gly-Pro-MCA substrate, human plasma as enzyme source (Pharmacological Test Example 1)
Details: 30 minutes at room temperature
pIC50: −log10 of the molar value.
recorded_metric: pIC50

molecule | measurement
N#C[C@@H]1CCCN1C(=O)CNCCNC(=O)c1cnc2n(c1=O)CCS2 [Compound 126] | 7.51

(I) CC(C)(CC(=O)N1Cc2cc(Cl)c(Cl)cc2C1)NCC(=O)N1CCC[C@H]1C#N [Example 74]
(II) CC(=O)N1CCc2cc(C(=O)NCC(C)(C)NCC(=O)N3CCC[C@H]3C#N)ccc21 [Example 46]
(III) COc1cccc2c1cc(C(=O)NCC(C)(C)NCC(=O)N1CCC[C@H]1C#N)n2C [Example 23]
Provide the items ranked by increasing pIC50. # output: labels, in the requested order
III, I, II
(III: 7.09, I: 7.36, II: 7.72)
